Test system: Escherichia coli
Assay comment: Antibacterial activity against Escherichia coli AG102 overexpressing AcrAB-TolC by p-iodonitrotetrazolium chloride colorimetric assay
Type: functional
molecules and their reported MIC
Give the value, in units of µg/mL, as a plain number.

CN(C)[C@@H]1C(O)=C(C(N)=O)C(=O)[C@@]2(O)C(O)=C3C(=O)c4c(O)cccc4[C@@](C)(O)[C@H]3C[C@@H]12
8

Here is another molecule to look at.
Incoming: Given the molecule O=C1NC(=O)C(Br)=C1Br , what is its reported MIC?
Outgoing: 256

---

Tested on: Escherichia coli
Assay comment: Antibacterial activity against Escherichia coli AG102 overexpressing AcrAB-TolC by p-iodonitrotetrazolium chloride colorimetric assay
Type: functional
Lab note: compare MIC with 20 µg/mL, writing True if less and False if equal or more.

Incoming: Consider NC[C@H]1O[C@H](O[C@H]2[C@H](O)[C@@H](O[C@H]3O[C@H](CO)[C@@H](O)[C@H](N)[C@H]3O)[C@H](N)C[C@@H]2N)[C@H](O)[C@@H](O)[C@@H]1O . Does its MIC lie strictly below 20 µg/mL?
Outgoing: True

Incoming: Consider O=C(O)c1cn(C2CC2)c2cc(N3CCNCC3)c(F)cc2c1=O . Does its MIC lie strictly below 20 µg/mL?
Outgoing: True

---

Tested on: Escherichia coli
Assay comment: Antibacterial activity against Escherichia coli AG102 overexpressing AcrAB-TolC by p-iodonitrotetrazolium chloride colorimetric assay
Type: functional
Assay endpoint: MIC (µg/mL)
Give the value, in units of µg/mL, as a plain number.

Here's what some known entries look like.
O=C(N[C@H](CO)[C@H](O)c1ccc([N+](=O)[O-])cc1)C(Cl)Cl
24
C[C@H]1COc2c(N3CCN(C)CC3)c(F)cc3c(=O)c(C(=O)O)cn1c23.C[C@H]1COc2c(N3CCN(C)CC3)c(F)cc3c(=O)c(C(=O)O)cn1c23.O
0.13
CC[C@H]1OC(=O)[C@H](C)[C@@H](O[C@H]2C[C@@](C)(OC)[C@@H](O)[C@H](C)O2)[C@H](C)[C@@H](O[C@@H]2O[C@H](C)C[C@H](N(C)C)[C@H]2O)[C@](C)(O)C[C@@H](C)C(=O)[C@H](C)[C@@H](O)[C@]1(C)O
128

Here is another compound to look at.
Incoming: Given the compound CCN1CCN(C(=O)N[C@@H](C(=O)N[C@@H]2C(=O)N3[C@@H]2SC(C)(C)[C@@H]3C(=O)O)c2ccccc2)C(=O)C1=O , what is its reported MIC?
Outgoing: 4

Measured values drawn from ChEMBL document CHEMBL3576792 for this set.
